- Tested on: K-562 leukemia
- experimental_details: NCI-60 one-dose screen, 48 h
- protocol_conditions: 10 µM unless noted
The panel holds about 83,000 compounds, 20% with a hit somewhere; the sample as a whole holds those more often. Active and inactive are the calls of the source. How the source made its calls: active means growth percent below 10; inactive means the rest.
A correct response names exactly one class from active, inactive

Consider the worked cases shown below.
Cc1ccc(-c2nc(N3CCNCC3)c3oc(-c4ccc(C)cc4)nc3n2)cc1 :: active
CCN1CCN(c2cc(C)nc(N(CCNc3ccnc4cc(Cl)ccc34)Cc3ccc4c(c3)OCO4)n2)CC1 :: active

q: Hello, I am checking results. What call was entered for "CNC1=CC(=O)c2c(C(=O)OC)c(C)[n+]([O-])c(C)c2C1=O" ?
a: inactive
